Listing of entries alongside the reported pIC50.
molecular target: Epidermal growth factor receptor (Homo sapiens)
Sequence (P00533 whole entry): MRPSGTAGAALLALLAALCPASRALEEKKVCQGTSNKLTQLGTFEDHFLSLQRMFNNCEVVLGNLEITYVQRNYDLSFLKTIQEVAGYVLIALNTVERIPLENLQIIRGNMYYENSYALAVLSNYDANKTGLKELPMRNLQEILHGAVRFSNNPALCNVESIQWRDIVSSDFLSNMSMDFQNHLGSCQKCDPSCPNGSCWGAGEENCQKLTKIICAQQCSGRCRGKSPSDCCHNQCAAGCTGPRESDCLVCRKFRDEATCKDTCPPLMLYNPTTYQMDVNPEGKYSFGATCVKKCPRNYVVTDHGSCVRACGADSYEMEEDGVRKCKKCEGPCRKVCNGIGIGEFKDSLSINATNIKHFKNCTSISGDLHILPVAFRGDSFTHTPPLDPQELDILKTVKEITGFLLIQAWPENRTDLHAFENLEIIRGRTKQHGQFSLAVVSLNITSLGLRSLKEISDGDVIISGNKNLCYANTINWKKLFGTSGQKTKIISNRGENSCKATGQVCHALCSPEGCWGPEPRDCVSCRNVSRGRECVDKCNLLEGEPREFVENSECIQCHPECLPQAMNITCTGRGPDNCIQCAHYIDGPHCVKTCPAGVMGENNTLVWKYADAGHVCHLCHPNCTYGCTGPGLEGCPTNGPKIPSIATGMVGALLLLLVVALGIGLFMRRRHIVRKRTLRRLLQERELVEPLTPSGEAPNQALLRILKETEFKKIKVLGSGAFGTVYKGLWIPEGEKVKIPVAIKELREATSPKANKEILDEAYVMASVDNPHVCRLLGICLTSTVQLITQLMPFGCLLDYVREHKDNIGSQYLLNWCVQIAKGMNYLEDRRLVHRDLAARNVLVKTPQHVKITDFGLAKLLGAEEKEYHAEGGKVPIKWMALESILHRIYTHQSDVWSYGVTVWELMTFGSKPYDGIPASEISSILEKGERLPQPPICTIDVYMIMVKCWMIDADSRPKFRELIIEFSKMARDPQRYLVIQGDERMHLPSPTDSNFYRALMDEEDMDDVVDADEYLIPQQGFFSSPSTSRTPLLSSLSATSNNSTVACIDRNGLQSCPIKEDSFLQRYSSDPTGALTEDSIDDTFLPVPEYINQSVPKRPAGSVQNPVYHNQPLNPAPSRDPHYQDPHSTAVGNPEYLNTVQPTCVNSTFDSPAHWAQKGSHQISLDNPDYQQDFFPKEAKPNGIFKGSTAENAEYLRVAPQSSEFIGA
pIC50: −log10 of the molar value.
readout type: pIC50

COC(=O)Nc1ccc(Nc2ncnc3cc(OC)c(OC)cc23)cc1Cl    5.21
CCCCOC(=O)Nc1ccc(Nc2ncnc3cc(OC)c(OC)cc23)cc1C    5.12
CCOC(=O)Nc1ccc(Nc2ncnc3cc(OC)c(OC)cc23)cc1C    6.05
CCOC(=O)Nc1cc(Nc2ncnc3cc(OC)c(OC)cc23)ccc1C    5.30
CCOC(=O)Nc1ccc(Nc2ncnc3cc(OCCN4CCOCC4)c(OC)cc23)cc1Cl    5.07
CCOC(=O)Nc1ccc(Nc2ncnc3cc(OC)c(OC)cc23)cc1Cl    6.00
